Readings of Km for the listed molecules
Assay: kinetic analysis, non-endpoint assay at 23° C.
Type: biochemical
Conditions: 23° C.; purified His-tagged protein; standard error in parenthetical; read-out: Km Quizalofop
Description: For the fifth screen, recombinant protein for each of the eleven engineered proteins was produced and purified for an in-depth biochemical analysis. […] Vmax is expressed as specific activity, umol herbicide product mg enzyme-1 min-1; Km expressed as mM herbicide substrate. […]
Readout kind: Km (µM)

{"columns": ["Molecule", "Readout kind", "Result"],
 "data": [
  ["MON-HT2: engineered oxygenase protein, amino acid sequence SEQ ID NO:18 (protein) MHAALTPLTNKYRFIDVQPLTGVLGAEITGVDLREPLDDSTWNEILDAFHTYQVIYFPGQAITNEQHIAFSRRFGPVDPVPLLKSIEGYPEVQMIRREANESSRVIGDDWHSDSTFLDAPPAAVVMRAIEVPEYGGDTGFLSMYSAWETLSPTMQATIEGLNVVHSATKVFGSLYQATNWRFSNTSVKVMDVDAGDRETVHPLVVTHPVTGRRALYCNQVYCQKIQGMTDAESKSLLQFLYEHATKFDFTCRVRWKKDQVLVWDNLCTMHRAAPDYAGKFRYLTRTTVAGDKPSR", "Km", 410],
  ["MON-HT4: engineered oxygenase protein, amino acid sequence SEQ ID NO:25 (protein) MHAALTPLTNKYRFIDVQPLTGVLGAEITGVDLREPLDDSTWNEILDAFHTYQVIYFPGQAITNEQHIAFSRRFGPVDPVPLLKSIEGYPEVQMIRREANESGRVIGDDWHTDSTFLDAPPAAVVMYAREVPPYGGDTGFLSMYTAWETLSPTMQATIEGLNVVHSATRVFGSLYQAQNRRYSNTSVKVMDVDAGDRETVHPLVVSHPVTGRRALYCNQVYCQRIEGMTDAESKSLLQFLYEHATKFDFTCRVRWKKDQVLVWDNLCTMHRAVPDYAGKFRYLTRTTVAGDKPSR", "Km", 240],
  ["MON-HT1: engineered oxygenase protein, amino acid sequence SEQ ID NO:14 (protein) MHAALTPLTNKYRFIDVQPLTGVLGAEITGVDLREPLDDSTWNEILDAFHTYQVIYFPGQAITNEQHIAFSRRFGPVDPVPILKSIEGYPEVQMIRREANESSRFIGDDWHTDSTFLDAPPAAVVMRAIEVPEYGGDTGFLSMYSAWETLSPTMQATIEGLNVVHSATKVFGSLYQATNWRFSNTSVKVMDVDAGDRETVHPLVVTHPVTGRRALYCNQVYCQKIQGMTDAESKSLLQFLYEHATKFDFTCRVRWKKDQVLVWDNLCTMHRAVPDYAGKFRYLTRTTVAGDKPSR", "Km", 170],
  ["MON-HT5: engineered oxygenase protein, amino acid sequence SEQ ID NO:28 (protein) MHAALTPLTNKYRFIDVQPLTGVLGAEITGVDLREPLDDSTWNEILDAFHTYQVIYFPGQAITNEQHIAFSRRFGPVDPVPLLKSIEGYPEVQMIRREANESGRVIGDDWHTDSTFLDAPPAAVVMRAIEVPEYGGDTGFLSMYSAWETLSPTMQATIEGLNVVHSATKVFGSLYQATNWRFSNTSVKVMDVDAGDRETVHPLVVTHPVTGRRALYCNQVYCQKIQGMTDAESKSLLQFLYEHATKFDFTCRVRWKKDQVLVWDNLCTMHRAVPDYAGKFRYLTRTTVAGDKPSR", "Km", 170]
]}
